Reference source for all entries: patent US20250101032A1

Tested on: HT29
method notes: In vitro cytotoxicity assay (CellTiter-Glo), HT29
Format: cell-based, Human
protocol conditions: Homo sapiens, HT-29, 144 h, read-out: Cytotoxicity IC50
pIC50: −log10 of the molar value.
recorded metric: pIC50

INSERT INTO assay_data (chemical_smiles, value_measured) VALUES
  ('CC[C@@]1(O)C(=O)OCc2c1cc1n(c2=O)Cc2c-1nc1cc(F)c(C)c3c1c2[C@@H](NC(=O)c1cc(O)[nH]n1)CC3', 6.18),
  ('CC[C@@]1(O)C(=O)OCc2c1cc1n(c2=O)Cc2c-1nc1cc(F)c(C)c3c1c2[C@@H](NC(=O)Cc1cn(CCO)nn1)CC3', 7.11),
  ('CC[C@@]1(O)C(=O)OCc2c1cc1n(c2=O)Cc2c-1nc1cc(F)c(C)c3c1c2[C@@H](NCCNCCN)CC3', 7.49),
  ('CC[C@@]1(O)C(=O)OCc2c1cc1n(c2=O)Cc2c-1nc1cc(F)c(C)c3c1c2[C@@H](NC(=O)CCC1OCCO1)CC3', 7.89),
  ('CC[C@@]1(O)C(=O)OCc2c1cc1n(c2=S)Cc2c-1nc1cc(F)c(C)c3c1c2[C@@H](N)CC3', 9.40),
  ('CC[C@@]1(O)C(=O)OCc2c1cc1n(c2=O)Cc2c-1nc1cc(F)c(C)c3c1c2[C@@H](NC(=O)OCCO)CC3', 8.24);
